Could you please report measured MIC Streptococcus pneumoniae (GC 1894) for the items listed next?
Tested on: Streptococcus sp.
testDetails: In vitro antibacterial evaluation: minimum inhibitory concentration (MIC), broth dilution method
Type: cell-based
measurementParameters: broth dilution, 5×10^5 CFU/mL, 18 hours at 35° C.
Number in µg/mL, nothing else.

// sample CC(C)=CCCC(C)C1OCC2OC(OC3C(CO)OC(Oc4ccc(CC5NC(=O)C(C(C)c6ccccc6)NC(=O)CNC(=O)C(CO)NC(=O)C(C(O)C6CNC(=N)N6C6OC(CO)C(O)C(O)C6O)NC(=O)C(C(O)C6CNC(=N)N6)NC5=O)cc4)C(O)C3O)C(O)C(O)C2O1 (centres unmarked) , its MIC Streptococcus pneumoniae (GC 1894) was 0.12

// sample CC(c1ccccc1)C1NC(=O)CNC(=O)C(CO)NC(=O)C(C(O)C2CNC(=N)N2C2OC(CO)C(O)C(O)C2O)NC(=O)C(C(O)C2CNC(=N)N2)NC(=O)C(Cc2ccc(OC3OC(CO)C(OC4OC(CO)C(O)C5OC(c6ccccc6)OC45)C(O)C3O)cc2)NC1=O (single isomer, unassigned) [Example 104b] , its MIC Streptococcus pneumoniae (GC 1894) was 0.12
